System: Bacillus cereus
test.description: Antibacterial activity against Bacillus cereus clinical isolate after 24 hrs
Assay type: functional
property: MIC (µM)
Form entry: value (µM) — number only.

{"columns": ["smiles.code", "tested.target", "MIC, µM"],
 "data": [
  ["CC1(C)S[C@@H]2[C@H](NC(=O)[C@H](N)c3ccccc3)C(=O)N2[C@H]1C(=O)O", "Bacillus cereus", 248]
]}

Look up MIC for this compound: O=C1N/C(=N/c2nc(C34CC5CC(CC(C5)C3)C4)cs2)S/C1=C\c1cccc([N+](=O)[O-])c1
16.1

Look up MIC for this compound: O=C1N/C(=N/c2nc(C34CC5CC(CC(C5)C3)C4)cs2)S/C1=C\c1cccc(Cl)c1
16.4

Look up MIC for this compound: COc1cc(/C=C2\S/C(=N\c3nc(C45CC6CC(CC(C6)C4)C5)cs3)NC2=O)cc(OC)c1O
20.9

###

Test system: Micrococcus flavus
test.description: Antibacterial activity against Micrococcus flavus ATCC 10240 after 72 hrs by serial sub-cultivation method
Format: functional
experimental.parameters: ATCC 10240, 72 h
property: MBC

{"columns": ["compound", "tested.target", "property", "result"],
 "data": [
  ["COc1ccc(/C=C2\\S/C(=N\\c3nc(C45CC6CC(CC(C6)C4)C5)cs3)NC2=O)cc1", "Micrococcus flavus", "MBC", "46.2 µM"],
  ["O=C1N/C(=N/c2nc(C34CC5CC(CC(C5)C3)C4)cs2)S/C1=C\\c1ccc([N+](=O)[O-])cc1", "Micrococcus flavus", "MBC", "21.5 µM"],
  ["O=C1N/C(=N/c2nc(C34CC5CC(CC(C5)C3)C4)cs2)S/C1=C\\c1ccc(Cl)cc1", "Micrococcus flavus", "MBC", "21.9 µM"]
]}

Recall the recorded MBC for CN[C@@H]1[C@H](O[C@H]2[C@H](O[C@H]3[C@H](O)[C@@H](O)[C@H](N=C(N)N)[C@@H](O)[C@@H]3N=C(N)N)O[C@@H](C)[C@]2(O)C=O)O[C@@H](CO)[C@H](O)[C@H]1O [STREPTOMYCIN] with Micrococcus flavus and state it.
172 µM

Recall the recorded MBC for O=C1N/C(=N/c2nc(C34CC5CC(CC(C5)C3)C4)cs2)S/C1=C\c1ccc(O)cc1 with Micrococcus flavus and state it.
45.8 µM

Recall the recorded MBC for O=C1N/C(=N/c2nc(C34CC5CC(CC(C5)C3)C4)cs2)S/C1=C\c1ccccc1Cl with Micrococcus flavus and state it.
23.8 µM

Recall the recorded MBC for COc1cc(/C=C2\S/C(=N\c3nc(C45CC6CC(CC(C6)C4)C5)cs3)NC2=O)ccc1O with Micrococcus flavus and state it.
21.9 µM

Recall the recorded MBC for O=C1N/C(=N/c2nc(C34CC5CC(CC(C5)C3)C4)cs2)S/C1=C\c1cccc(Cl)c1 with Micrococcus flavus and state it.
21.9 µM

###

Tested on: Pseudomonas aeruginosa
test.description: Antibacterial activity against Pseudomonas aeruginosa ATCC 27853 after 72 hrs by serial sub-cultivation method
Format: functional
experimental.parameters: ATCC 27853, 72 h
property: MBC (µM)
Form entry: value (µM) — number only.

Some entries whose results are on file:
{"columns": ["smiles.code", "MBC (µM)"],
 "data": [
  ["O=C1N/C(=N/c2nc(C34CC5CC(CC(C5)C3)C4)cs2)S/C1=C\\c1cccc([N+](=O)[O-])c1", 43],
  ["CC1(C)S[C@@H]2[C@H](NC(=O)[C@H](N)c3ccccc3)C(=O)N2[C@H]1C(=O)O", 1240],
  ["O=C1N/C(=N/c2nc(C34CC5CC(CC(C5)C3)C4)cs2)S/C1=C\\c1ccc(O)cc1", 45.8]
]}

// below: MBC requested for another compound
Look up MBC for this compound: COc1ccc(/C=C2\S/C(=N\c3nc(C45CC6CC(CC(C6)C4)C5)cs3)NC2=O)cc1
23.1

###

Tested on: Aspergillus flavus
test.description: Antifungal activity against Aspergillus flavus ATCC 9643 after 72 hrs by serial dilution method
Format: functional
experimental.parameters: ATCC 9643, 72 h
MIC strictly under 20 µM means t; at 20 µM or over means f.

Below are worked cases with known answers.
{"columns": ["compound", "assigned.class"],
 "data": [
  ["CC(=O)N1CCN(c2ccc(OCC3COC(Cn4ccnc4)(c4ccc(Cl)cc4Cl)O3)cc2)CC1 (stereo not drawn)", "f"],
  ["COc1cc(/C=C2\\S/C(=N\\c3nc(C45CC6CC(CC(C6)C4)C5)cs3)NC2=O)ccc1O", "t"],
  ["COc1ccc(/C=C2\\S/C(=N\\c3nc(C45CC6CC(CC(C6)C4)C5)cs3)NC2=O)cc1", "t"],
  ["O=C1N/C(=N/c2nc(C34CC5CC(CC(C5)C3)C4)cs2)S/C1=C\\c1cccc([N+](=O)[O-])c1", "t"],
  ["O=C1N/C(=N/c2nc(C34CC5CC(CC(C5)C3)C4)cs2)S/C1=C\\c1ccc(O)cc1", "t"]
]}

In plain terms, does O=C1N/C(=N/c2nc(C34CC5CC(CC(C5)C3)C4)cs2)S/C1=C\c1ccccc1[N+](=O)[O-] come in under 20 µM for MIC?
t

In plain terms, does O=C1CS/C(=N/c2nc(C34CC5CC(CC(C5)C3)C4)cs2)N1 come in under 20 µM for MIC?
t

In plain terms, does c1ccc(-c2ccc(C(c3ccccc3)n3ccnc3)cc2)cc1 (stereo not drawn) come in under 20 µM for MIC?
f

###

System: Micrococcus flavus
test.description: Antibacterial activity against Micrococcus flavus ATCC 10240 after 72 hrs by serial sub-cultivation method
Assay type: functional
experimental.parameters: ATCC 10240, 72 h
property: MBC (µM)
Form entry: value (µM) — number only.

{"columns": ["molecule", "readout.number"],
 "data": [
  ["COc1cc(/C=C2\\S/C(=N\\c3nc(C45CC6CC(CC(C6)C4)C5)cs3)NC2=O)cc(OC)c1O", 20.9],
  ["O=C1N/C(=N/c2nc(C34CC5CC(CC(C5)C3)C4)cs2)S/C1=C\\c1ccccc1[N+](=O)[O-]", 43],
  ["CC1(C)S[C@@H]2[C@H](NC(=O)[C@H](N)c3ccccc3)C(=O)N2[C@H]1C(=O)O [AMPICILLIN]", 372]
]}

Look up MBC for this molecule: O=C1N/C(=N/c2nc(C34CC5CC(CC(C5)C3)C4)cs2)S/C1=C\c1cccc([N+](=O)[O-])c1
43

Look up MBC for this molecule: O=C1CS/C(=N/c2nc(C34CC5CC(CC(C5)C3)C4)cs2)N1
47.6

###

Test system: Trichoderma viride
test.description: Antifungal activity against Trichoderma viride IAM 5061 after 72 hrs by serial sub-cultivation method
Format: functional
experimental.parameters: IAM 5061, 72 h
property: MFC (µM)
Form entry: value (µM) — number only.

{"columns": ["smiles.code", "display.unit", "readout.number"],
 "data": [
  ["COc1ccc(/C=C2\\S/C(=N\\c3nc(C45CC6CC(CC(C6)C4)C5)cs3)NC2=O)cc1", "µM", 23.1]
]}

Look up MFC for this compound: O=C1N/C(=N/c2nc(C34CC5CC(CC(C5)C3)C4)cs2)S/C1=C\c1cccc([N+](=O)[O-])c1
10.8

Look up MFC for this compound: O=C1N/C(=N/c2nc(C34CC5CC(CC(C5)C3)C4)cs2)S/C1=C\c1cccc(Cl)c1
21.9

Look up MFC for this compound: O=C1N/C(=N/c2nc(C34CC5CC(CC(C5)C3)C4)cs2)S/C1=C\c1ccc(O)cc1
22.9

Look up MFC for this compound: O=C1N/C(=N/c2nc(C34CC5CC(CC(C5)C3)C4)cs2)S/C1=C\c1ccccc1[N+](=O)[O-]
21.5

###

Tested on: Proteus mirabilis
test.description: Antibacterial activity against Proteus mirabilis after 72 hrs by serial sub-cultivation method
Format: functional
Measured MBC accompanies every entry in the list below.
Form entry: value (µM) — number only.

Some entries whose results are on file:
{"columns": ["smiles.code", "MBC, µM"],
 "data": [
  ["O=C1N/C(=N/c2nc(C34CC5CC(CC(C5)C3)C4)cs2)S/C1=C\\c1cccc(Cl)c1", 65.7],
  ["O=C1N/C(=N/c2nc(C34CC5CC(CC(C5)C3)C4)cs2)S/C1=C\\c1ccccc1Cl", 63.7],
  ["O=C1N/C(=N/c2nc(C34CC5CC(CC(C5)C3)C4)cs2)S/C1=C\\c1ccc([N+](=O)[O-])cc1", 64.5],
  ["COc1cc(/C=C2\\S/C(=N\\c3nc(C45CC6CC(CC(C6)C4)C5)cs3)NC2=O)ccc1O", 65.7]
]}

// below: MBC requested for another compound
Look up MBC for this compound: O=C1N/C(=N/c2nc(C34CC5CC(CC(C5)C3)C4)cs2)S/C1=C\c1ccc(O)cc1
68.7
